# System: Escherichia coli (ATCC 25922)
# Format: cell-based
# Reported Conditions: ATCC 25922, 18 h
Where a SMILES comes first, the peptide text is derived from it. The star is where a group is joined. Palmitoyl = CCCCCCCCCCCCCCCC(=O)*; Myristoyl = CCCCCCCCCCCCCC(=O)*; Lauroyl = CCCCCCCCCCCC(=O)*
I'd appreciate it if you could supply MIC Escherichia coli values for the items below.
Output spec: scalar in µg/mL, unitless text.

**Query** Given the entry CCCCCCCCCCCCCCCC(=O)N[C@@H](CCCCN)C(=O)NCC(N)=O [C16-KG-NH2] (Palmitoyl-Lys-Gly-NH2) , report its measured MIC Escherichia coli.
**Result** 256

**Query** Given the entry CCCCCCCCCCCCCCCC(=O)N[C@@H](CCCCN)C(=O)N[C@@H](CCCCN)C(=O)N[C@@H](CCCCN)C(N)=O , report its measured MIC Escherichia coli.
**Result** 8

**Query** Given the entry CCCCCCCCCCCCCCCC(=O)N[C@@H](CCCCN)C(=O)N[C@@H](CCCCN)C(N)=O , report its measured MIC Escherichia coli.
**Result** 8

**Query** Given the entry CCCCCCCCCCCCCC(=O)N[C@@H](CCCCN)C(=O)N[C@@H](CCCCN)C(=O)N[C@@H](CCCCN)C(=O)N[C@@H](CCCCN)C(N)=O [C14-KKKK-NH2] (Myristoyl-KKKK-NH2) , report its measured MIC Escherichia coli.
**Result** 256

**Query** Given the entry CCCCCCCCCCCC(=O)N[C@@H](CCCCN)C(=O)N[C@@H](CCCCN)C(=O)N[C@@H](CCCCN)C(=O)N[C@@H](CCCCN)C(N)=O [C12-KKKK-NH2] (Lauroyl-KKKK-NH2) , report its measured MIC Escherichia coli.
**Result** 256

**Query** Given the entry CCCCCCCCCCCCCC(=O)N[C@@H](CCCCN)C(=O)NCC(=O)N[C@@H](CCCCN)C(N)=O [C14-KGK-NH2] (Myristoyl-Lys-Gly-Lys-NH2) , report its measured MIC Escherichia coli.
**Result** 128

**Query** Given the entry CCCCCCCCCCCC(=O)N[C@@H](CCCCN)C(=O)NCC(N)=O [C12-KG-NH2] (Lauroyl-Lys-Gly-NH2) , report its measured MIC Escherichia coli.
**Result** 256

**Query** Given the entry CCCCCCCCCCCCCC(=O)N[C@@H](CCCCN)C(N)=O , report its measured MIC Escherichia coli.
**Result** 128

----------
I'd appreciate it if you could supply MFC Aspergillus brasiliensis values for the items below.
# Tested on: Aspergillus brasiliensis (ATCC 16404)
# Format: cell-based
# Reported Conditions: ATCC 16404, 48 h
Where a SMILES comes first, the peptide text is derived from it. The star is where a group is joined. Palmitoyl = CCCCCCCCCCCCCCCC(=O)*; Myristoyl = CCCCCCCCCCCCCC(=O)*; Lauroyl = CCCCCCCCCCCC(=O)*; Decanoyl = CCCCCCCCCC(=O)*; Octanoyl = CCCCCCCC(=O)*
Output spec: scalar in µg/mL, unitless text.

**Query** Given the entry CCCCCCCCCCCCCCCC(=O)N[C@@H](CCCCN)C(=O)NCC(=O)N[C@@H](CCCCN)C(=O)NCC(N)=O [C16-KGKG-NH2] (Palmitoyl-KGKG-NH2) , report its measured MFC Aspergillus brasiliensis.
**Result** 128

**Query** Given the entry CCCCCCCCCC(=O)N[C@@H](CCCCN)C(=O)NCC(=O)N[C@@H](CCCCN)C(=O)NCC(N)=O [C10-KGKG-NH2] (Decanoyl-KGKG-NH2) , report its measured MFC Aspergillus brasiliensis.
**Result** 2000

**Query** Given the entry CCCCCCCCCCCC(=O)N[C@@H](CCCCN)C(=O)NCC(=O)N[C@@H](CCCCN)C(=O)NCC(N)=O [C12-KGKG-NH2] (Lauroyl-KGKG-NH2) , report its measured MFC Aspergillus brasiliensis.
**Result** 1000

**Query** Given the entry CCCCCCCCCCCCCC(=O)N[C@@H](CCCCN)C(=O)NCC(=O)N[C@@H](CCCCN)C(N)=O [C14-KGK-NH2] (Myristoyl-Lys-Gly-Lys-NH2) , report its measured MFC Aspergillus brasiliensis.
**Result** 128

**Query** Given the entry CCCCCCCCCCCCCCCC(=O)N[C@@H](CCCCN)C(=O)N[C@@H](CCCCN)C(=O)N[C@@H](CCCCN)C(N)=O , report its measured MFC Aspergillus brasiliensis.
**Result** 128

**Query** Given the entry CCCCCCCC(=O)N[C@@H](CCCCN)C(=O)NCC(=O)N[C@@H](CCCCN)C(N)=O [C8-KGK-NH2] (Octanoyl-Lys-Gly-Lys-NH2) , report its measured MFC Aspergillus brasiliensis.
**Result** 2000

**Query** Given the entry CCCCCCCC(=O)N[C@@H](CCCCN)C(=O)N[C@@H](CCCCN)C(=O)N[C@@H](CCCCN)C(=O)N[C@@H](CCCCN)C(N)=O [C8-KKKK-NH2] (Octanoyl-KKKK-NH2) , report its measured MFC Aspergillus brasiliensis.
**Result** 2000

**Query** Given the entry CCCCCCCCCCCC(=O)N[C@@H](CCCCN)C(=O)N[C@@H](CCCCN)C(=O)N[C@@H](CCCCN)C(=O)N[C@@H](CCCCN)C(N)=O [C12-KKKK-NH2] (Lauroyl-KKKK-NH2) , report its measured MFC Aspergillus brasiliensis.
**Result** 256

**Query** Given the entry CCCCCCCCCC(=O)N[C@@H](CCCCN)C(N)=O , report its measured MFC Aspergillus brasiliensis.
**Result** 1000

**Query** Given the entry CCCCCCCCCCCCCC(=O)N[C@@H](CCCCN)C(=O)N[C@@H](CCCCN)C(=O)N[C@@H](CCCCN)C(=O)N[C@@H](CCCCN)C(N)=O [C14-KKKK-NH2] (Myristoyl-KKKK-NH2) , report its measured MFC Aspergillus brasiliensis.
**Result** 64

**Query** Given the entry CCCCCCCCCCCCCC(=O)N[C@@H](CCCCN)C(=O)NCC(=O)N[C@@H](CCCCN)C(=O)NCC(N)=O [C14-KGKG-NH2] (Myristoyl-KGKG-NH2) , report its measured MFC Aspergillus brasiliensis.
**Result** 128

**Query** Given the entry CCCCCCCCCCCC(=O)N[C@@H](CCCCN)C(=O)N[C@@H](CCCCN)C(N)=O , report its measured MFC Aspergillus brasiliensis.
**Result** 2000

**Query** Given the entry CCCCCCCCCC(=O)N[C@@H](CCCCN)C(=O)NCC(=O)N[C@@H](CCCCN)C(N)=O [C10-KGK-NH2] (Decanoyl-Lys-Gly-Lys-NH2) , report its measured MFC Aspergillus brasiliensis.
**Result** 1000

**Query** Given the entry CCCCCCCC(=O)N[C@@H](CCCCN)C(=O)NCC(N)=O [C8-KG-NH2] (Octanoyl-Lys-Gly-NH2) , report its measured MFC Aspergillus brasiliensis.
**Result** 2000

**Query** Given the entry CCCCCCCCCC(=O)N[C@@H](CCCCN)C(=O)N[C@@H](CCCCN)C(=O)N[C@@H](CCCCN)C(=O)N[C@@H](CCCCN)C(N)=O [C10-KKKK-NH2] (Decanoyl-KKKK-NH2) , report its measured MFC Aspergillus brasiliensis.
**Result** 2000

**Query** Given the entry CCCCCCCCCCCCCCCC(=O)N[C@@H](CCCCN)C(=O)N[C@@H](CCCCN)C(=O)N[C@@H](CCCCN)C(=O)N[C@@H](CCCCN)C(N)=O [C16-KKKK-NH2] (Palmitoyl-KKKK-NH2) , report its measured MFC Aspergillus brasiliensis.
**Result** 128

**Query** Given the entry CCCCCCCC(=O)N[C@@H](CCCCN)C(N)=O , report its measured MFC Aspergillus brasiliensis.
**Result** 1000

**Query** Given the entry CCCCCCCCCCCCCC(=O)N[C@@H](CCCCN)C(=O)N[C@@H](CCCCN)C(N)=O , report its measured MFC Aspergillus brasiliensis.
**Result** 256

**Query** Given the entry CCCCCCCCCC(=O)N[C@@H](CCCCN)C(=O)N[C@@H](CCCCN)C(N)=O , report its measured MFC Aspergillus brasiliensis.
**Result** 1000

**Query** Given the entry CCCCCCCCCCCCCC(=O)N[C@@H](CCCCN)C(=O)NCC(N)=O [C14-KG-NH2] (Myristoyl-Lys-Gly-NH2) , report its measured MFC Aspergillus brasiliensis.
**Result** 128

**Query** Given the entry CCCCCCCCCCCC(=O)N[C@@H](CCCCN)C(=O)NCC(N)=O [C12-KG-NH2] (Lauroyl-Lys-Gly-NH2) , report its measured MFC Aspergillus brasiliensis.
**Result** 512

**Query** Given the entry CCCCCCCCCCCCCC(=O)N[C@@H](CCCCN)C(=O)N[C@@H](CCCCN)C(=O)N[C@@H](CCCCN)C(N)=O , report its measured MFC Aspergillus brasiliensis.
**Result** 64

**Query** Given the entry CCCCCCCCCCCCCCCC(=O)N[C@@H](CCCCN)C(=O)NCC(=O)N[C@@H](CCCCN)C(N)=O [C16-KGK-NH2] (Palmitoyl-Lys-Gly-Lys-NH2) , report its measured MFC Aspergillus brasiliensis.
**Result** 128
